# Test target: von Hippel-Lindau disease tumor suppressor/SWI/SNF-related matrix-associated actin-dependent regulator of chromatin subfamily A member 2 (Homo sapiens) (UniProt P51531+P40337)
# Sequence (P40337 whole entry, looked up): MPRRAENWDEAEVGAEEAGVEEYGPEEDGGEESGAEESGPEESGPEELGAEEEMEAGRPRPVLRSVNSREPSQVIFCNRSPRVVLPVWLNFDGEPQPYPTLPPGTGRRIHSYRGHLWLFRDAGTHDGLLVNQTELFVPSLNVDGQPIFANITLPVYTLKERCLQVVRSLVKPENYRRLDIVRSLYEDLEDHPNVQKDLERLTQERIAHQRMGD
# Sequence (P51531 whole entry, looked up): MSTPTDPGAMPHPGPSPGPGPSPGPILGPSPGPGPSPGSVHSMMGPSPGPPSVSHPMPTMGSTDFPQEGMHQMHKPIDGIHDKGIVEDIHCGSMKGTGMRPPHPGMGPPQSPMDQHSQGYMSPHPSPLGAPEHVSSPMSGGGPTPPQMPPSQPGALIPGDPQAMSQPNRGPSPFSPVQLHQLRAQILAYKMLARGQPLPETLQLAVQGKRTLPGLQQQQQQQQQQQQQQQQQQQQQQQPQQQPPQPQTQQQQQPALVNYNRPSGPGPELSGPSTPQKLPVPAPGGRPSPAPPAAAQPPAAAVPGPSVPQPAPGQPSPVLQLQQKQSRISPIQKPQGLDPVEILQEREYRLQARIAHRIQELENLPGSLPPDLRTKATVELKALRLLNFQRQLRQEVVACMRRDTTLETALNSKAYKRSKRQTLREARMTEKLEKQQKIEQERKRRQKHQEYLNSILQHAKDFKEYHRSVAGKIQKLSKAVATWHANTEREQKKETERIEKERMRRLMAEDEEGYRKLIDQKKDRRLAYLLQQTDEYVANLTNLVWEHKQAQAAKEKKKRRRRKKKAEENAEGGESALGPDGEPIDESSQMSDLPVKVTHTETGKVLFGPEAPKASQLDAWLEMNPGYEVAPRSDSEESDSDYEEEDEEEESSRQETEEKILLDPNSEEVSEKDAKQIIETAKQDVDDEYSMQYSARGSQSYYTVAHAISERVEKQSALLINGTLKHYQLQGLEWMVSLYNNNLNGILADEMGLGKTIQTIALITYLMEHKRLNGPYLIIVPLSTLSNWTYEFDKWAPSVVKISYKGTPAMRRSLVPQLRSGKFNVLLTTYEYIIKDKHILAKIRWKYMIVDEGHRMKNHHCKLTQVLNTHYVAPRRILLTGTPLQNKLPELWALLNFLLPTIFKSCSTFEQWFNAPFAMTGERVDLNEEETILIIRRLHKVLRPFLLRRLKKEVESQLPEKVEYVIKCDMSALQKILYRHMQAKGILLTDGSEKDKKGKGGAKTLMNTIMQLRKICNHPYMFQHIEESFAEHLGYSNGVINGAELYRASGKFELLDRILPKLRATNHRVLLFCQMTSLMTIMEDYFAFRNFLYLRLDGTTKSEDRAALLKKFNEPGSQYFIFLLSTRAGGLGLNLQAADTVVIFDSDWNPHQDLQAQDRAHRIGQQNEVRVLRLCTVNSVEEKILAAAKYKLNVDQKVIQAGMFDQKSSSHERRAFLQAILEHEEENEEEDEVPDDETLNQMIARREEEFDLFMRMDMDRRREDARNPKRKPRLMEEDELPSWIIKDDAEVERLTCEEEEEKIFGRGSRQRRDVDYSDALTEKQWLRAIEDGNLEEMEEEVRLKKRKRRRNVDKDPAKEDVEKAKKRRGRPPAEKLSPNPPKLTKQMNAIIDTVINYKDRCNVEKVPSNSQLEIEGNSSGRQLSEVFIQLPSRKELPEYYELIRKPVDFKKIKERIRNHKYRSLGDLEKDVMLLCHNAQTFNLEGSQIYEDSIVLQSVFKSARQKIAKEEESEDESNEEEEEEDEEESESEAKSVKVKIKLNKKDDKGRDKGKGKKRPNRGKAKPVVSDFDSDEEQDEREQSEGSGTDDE
# Test name: Protac activity at VHL/SMARCA2 in human A549 cells assessed as induction of SMARCA2 bromodomain degradation using rabbit anti-SMARCA2 antibody incubated for 18 hrs by WES capillary electrophoresis relative to initial level
# Type: cell-based
Kindly supply the reported Emax values for the records listed here.

// batch mode: one Emax value per listed entry
1. Cc1ncsc1-c1ccc(CNC(=O)[C@@H]2C[C@@H](O)CN2C(=O)[C@@H](NC(=O)C2(F)CC2)C(C)(C)C)c(OCCCc2ccc(CN3CCN(c4cc(-c5ccccc5O)nnc4N)CC3)cc2)c1
2. Cc1ncsc1-c1ccc(CNC(=O)[C@@H]2C[C@@H](O)CN2C(=O)[C@@H](NC(=O)C2(F)CC2)C(C)(C)C)c(OCCc2ccc(CN3CCN(c4cc(-c5ccccc5O)nnc4N)CC3)cc2)c1
3. Cc1ncsc1-c1ccc(CNC(=O)[C@@H]2C[C@@H](O)CN2C(=O)[C@@H](NC(=O)C2(F)CC2)C(C)(C)C)c(OCCc2ccc(CN3CCN(c4cc(-c5ccccc5O)nnc4N)CC3)c(F)c2)c1
4. Cc1ncsc1-c1ccc(CNC(=O)[C@@H]2C[C@@H](O)CN2C(=O)[C@@H](NC(=O)C2(F)CC2)C(C)(C)C)c(OCCCOc2ccc(CN3CCN(c4cc(-c5ccccc5O)nnc4N)CC3)cc2)c1

1: 90%; 2: 91%; 3: 95%; 4: 99%

For each of the molecules below, state Emax.
1. Cc1ncsc1-c1ccc(CNC(=O)[C@@H]2C[C@@H](O)CN2C(=O)[C@@H](NC(=O)C2(F)CC2)C(C)(C)C)c(OCCc2ccc(OCCN3CCN(c4cc(-c5ccccc5O)nnc4N)CC3)cc2)c1
2. Cc1ncsc1-c1ccc(CNC(=O)[C@@H]2C[C@@H](O)CN2C(=O)[C@@H](NC(=O)C2(F)CC2)C(C)(C)C)c(OCCOc2ccc(CN3CCN(c4cc(-c5ccccc5O)nnc4N)CC3)cc2)c1

99%
98%

====

# Test target: von Hippel-Lindau disease tumor suppressor/SWI/SNF-related matrix-associated actin-dependent regulator of chromatin subfamily A member 2 (Homo sapiens, UniProt P40337+P51531)
# Test name: Protac activity at VHL/SMARCA2 in human A549 cells assessed as induction of SMARCA2 bromodomain degradation using rabbit anti-SMARCA2 antibody incubated for 18 hrs by WES capillary electrophoresis
Measured property: pEC50
Answers are plain numbers, as −log10 of the molar value.

Each compound below has a recorded value; state its pEC50.
1. Cc1ncsc1-c1ccc(CNC(=O)[C@@H]2C[C@@H](O)CN2C(=O)[C@@H](NC(=O)C2(F)CC2)C(C)(C)C)c(OCCOc2ccc(CN3CCN(c4cc(-c5ccccc5O)nnc4N)CC3)cc2)c1
2. Cc1ncsc1-c1ccc(CNC(=O)[C@@H]2C[C@@H](O)CN2C(=O)[C@@H](NC(=O)C2(F)CC2)C(C)(C)C)c(OCCCOc2ccc(CN3CCN(c4cc(-c5ccccc5O)nnc4N)CC3)cc2)c1

[7.92, 7.59]

The following compounds each have a reported value; give each one's pEC50.
1. Cc1ncsc1-c1ccc(CNC(=O)[C@@H]2C[C@@H](O)CN2C(=O)[C@@H](NC(=O)C2(F)CC2)C(C)(C)C)c(OCCc2ccc(CN3CCN(c4cc(-c5ccccc5O)nnc4N)CC3)c(F)c2)c1
2. Cc1ncsc1-c1ccc(CNC(=O)[C@@H]2C[C@@H](O)CN2C(=O)[C@@H](NC(=O)C2(F)CC2)C(C)(C)C)c(OCCc2ccc(CN3CCN(c4cc(-c5ccccc5O)nnc4N)CC3)cc2)c1
3. Cc1ncsc1-c1ccc(CNC(=O)[C@@H]2C[C@@H](O)CN2C(=O)[C@@H](NC(=O)C2(F)CC2)C(C)(C)C)c(OCCCc2ccc(CN3CCN(c4cc(-c5ccccc5O)nnc4N)CC3)cc2)c1
4. Cc1ncsc1-c1ccc(CNC(=O)[C@@H]2C[C@@H](O)CN2C(=O)[C@@H](NC(=O)C2(F)CC2)C(C)(C)C)c(OCCc2ccc(OCCN3CCN(c4cc(-c5ccccc5O)nnc4N)CC3)cc2)c1

[7.26, 7.17, 7.24, 7.39]

====

Assignment: determine reported Emax for the given compounds.
# Test target: von Hippel-Lindau disease tumor suppressor/SWI/SNF-related matrix-associated actin-dependent regulator of chromatin subfamily A member 4 (Homo sapiens) (UniProt P51532+P40337)
# Sequence (P51532 whole entry, looked up, one chain of several): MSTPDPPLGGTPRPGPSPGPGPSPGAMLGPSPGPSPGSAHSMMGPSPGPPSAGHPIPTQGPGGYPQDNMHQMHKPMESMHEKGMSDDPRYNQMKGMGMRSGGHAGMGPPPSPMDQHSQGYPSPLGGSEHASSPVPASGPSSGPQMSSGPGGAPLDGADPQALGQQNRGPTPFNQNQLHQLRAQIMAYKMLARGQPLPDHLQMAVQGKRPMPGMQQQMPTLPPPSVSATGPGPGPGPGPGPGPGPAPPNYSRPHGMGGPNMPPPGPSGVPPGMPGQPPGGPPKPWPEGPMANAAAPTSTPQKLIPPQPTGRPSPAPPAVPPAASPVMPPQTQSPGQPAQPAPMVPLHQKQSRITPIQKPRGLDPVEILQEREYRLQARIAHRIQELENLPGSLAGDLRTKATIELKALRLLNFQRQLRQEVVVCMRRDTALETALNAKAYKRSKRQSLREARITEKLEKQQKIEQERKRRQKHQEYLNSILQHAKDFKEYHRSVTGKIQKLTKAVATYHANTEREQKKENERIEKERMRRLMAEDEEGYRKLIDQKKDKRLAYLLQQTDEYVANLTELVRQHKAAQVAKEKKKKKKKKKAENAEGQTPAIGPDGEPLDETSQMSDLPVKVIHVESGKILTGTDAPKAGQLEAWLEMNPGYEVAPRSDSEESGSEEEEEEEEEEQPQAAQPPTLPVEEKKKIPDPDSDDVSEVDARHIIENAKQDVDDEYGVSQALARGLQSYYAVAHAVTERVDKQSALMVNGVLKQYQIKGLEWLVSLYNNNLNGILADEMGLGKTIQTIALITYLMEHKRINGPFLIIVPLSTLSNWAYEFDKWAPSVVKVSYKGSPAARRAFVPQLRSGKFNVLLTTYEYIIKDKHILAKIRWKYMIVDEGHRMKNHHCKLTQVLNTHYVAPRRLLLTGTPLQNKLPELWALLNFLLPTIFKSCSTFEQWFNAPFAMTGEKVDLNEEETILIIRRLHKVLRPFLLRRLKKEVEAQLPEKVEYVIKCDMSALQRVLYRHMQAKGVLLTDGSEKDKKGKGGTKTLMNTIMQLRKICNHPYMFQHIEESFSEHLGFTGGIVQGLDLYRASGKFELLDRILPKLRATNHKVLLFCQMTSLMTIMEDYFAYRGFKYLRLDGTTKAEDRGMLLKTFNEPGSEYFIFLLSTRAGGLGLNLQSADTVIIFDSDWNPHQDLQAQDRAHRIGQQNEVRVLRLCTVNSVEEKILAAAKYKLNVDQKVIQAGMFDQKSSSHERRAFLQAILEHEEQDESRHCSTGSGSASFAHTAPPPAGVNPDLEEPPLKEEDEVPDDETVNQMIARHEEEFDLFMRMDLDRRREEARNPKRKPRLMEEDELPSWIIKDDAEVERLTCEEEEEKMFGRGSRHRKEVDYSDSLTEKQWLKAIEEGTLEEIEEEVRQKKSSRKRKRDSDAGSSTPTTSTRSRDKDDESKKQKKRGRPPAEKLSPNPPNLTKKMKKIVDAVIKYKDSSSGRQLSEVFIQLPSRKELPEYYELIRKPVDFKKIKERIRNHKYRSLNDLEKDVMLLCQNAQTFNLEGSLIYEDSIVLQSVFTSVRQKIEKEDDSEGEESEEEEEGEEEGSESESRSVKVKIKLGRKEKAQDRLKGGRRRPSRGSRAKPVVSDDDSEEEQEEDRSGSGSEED
# Test name: Protac activity at VHL/SMARCA4 in human A549 cells assessed as induction of SMARCA4 bromodomain degradation using anti-SMARCA4 antibody incubated for 18 hrs by WES capillary electrophoresis relative to initial level
# Type: cell-based
Answers are plain numbers, in %.

Cc1ncsc1-c1ccc(CNC(=O)[C@@H]2C[C@@H](O)CN2C(=O)[C@@H](NC(=O)C2(F)CC2)C(C)(C)C)c(OCCc2ccc(CN3CCN(c4cc(-c5ccccc5O)nnc4N)CC3)c(F)c2)c1 ... 95
Cc1ncsc1-c1ccc(CNC(=O)[C@@H]2C[C@@H](O)CN2C(=O)[C@@H](NC(=O)C2(F)CC2)C(C)(C)C)c(OCCCOc2ccc(CN3CCN(c4cc(-c5ccccc5O)nnc4N)CC3)cc2)c1 ... 100
Cc1ncsc1-c1ccc(CNC(=O)[C@@H]2C[C@@H](O)CN2C(=O)[C@@H](NC(=O)C2(F)CC2)C(C)(C)C)c(OCCc2ccc(CN3CCN(c4cc(-c5ccccc5O)nnc4N)CC3)cc2)c1 ... 93
Cc1ncsc1-c1ccc(CNC(=O)[C@@H]2C[C@@H](O)CN2C(=O)[C@@H](NC(=O)C2(F)CC2)C(C)(C)C)c(OCCc2ccc(OCCN3CCN(c4cc(-c5ccccc5O)nnc4N)CC3)cc2)c1 ... 99
Cc1ncsc1-c1ccc(CNC(=O)[C@@H]2C[C@@H](O)CN2C(=O)[C@@H](NC(=O)C2(F)CC2)C(C)(C)C)c(OCCCc2ccc(CN3CCN(c4cc(-c5ccccc5O)nnc4N)CC3)cc2)c1 ... 92

Next up:
Quick note, Emax for Cc1ncsc1-c1ccc(CNC(=O)[C@@H]2C[C@@H](O)CN2C(=O)[C@@H](NC(=O)C2(F)CC2)C(C)(C)C)c(OCCOc2ccc(CN3CCN(c4cc(-c5ccccc5O)nnc4N)CC3)cc2)c1 landed at 97

====

# Test target: von Hippel-Lindau disease tumor suppressor/SWI/SNF-related matrix-associated actin-dependent regulator of chromatin subfamily A member 4 (Homo sapiens, UniProt P40337+P51532)
# Sequence (P51532 whole entry, one chain of several): as the sequence (P51532 whole entry, looked up, one chain of several) above
# Test name: Protac activity at VHL/SMARCA4 in human A549 cells assessed as induction of SMARCA4 bromodomain degradation using anti-SMARCA4 antibody incubated for 18 hrs by WES capillary electrophoresis
Consider the following compounds; for each one, report its EC50.
Give bare numbers, in nM.

Look over these answered cases.
Cc1ncsc1-c1ccc(CNC(=O)[C@@H]2C[C@@H](O)CN2C(=O)[C@@H](NC(=O)C2(F)CC2)C(C)(C)C)c(OCCCc2ccc(CN3CCN(c4cc(-c5ccccc5O)nnc4N)CC3)cc2)c1 ... 25
Cc1ncsc1-c1ccc(CNC(=O)[C@@H]2C[C@@H](O)CN2C(=O)[C@@H](NC(=O)C2(F)CC2)C(C)(C)C)c(OCCOc2ccc(CN3CCN(c4cc(-c5ccccc5O)nnc4N)CC3)cc2)c1 ... 16
Cc1ncsc1-c1ccc(CNC(=O)[C@@H]2C[C@@H](O)CN2C(=O)[C@@H](NC(=O)C2(F)CC2)C(C)(C)C)c(OCCCOc2ccc(CN3CCN(c4cc(-c5ccccc5O)nnc4N)CC3)cc2)c1 ... 16
Cc1ncsc1-c1ccc(CNC(=O)[C@@H]2C[C@@H](O)CN2C(=O)[C@@H](NC(=O)C2(F)CC2)C(C)(C)C)c(OCCc2ccc(CN3CCN(c4cc(-c5ccccc5O)nnc4N)CC3)c(F)c2)c1 ... 33

Please give EC50, item by item, for the list that follows.
1. Cc1ncsc1-c1ccc(CNC(=O)[C@@H]2C[C@@H](O)CN2C(=O)[C@@H](NC(=O)C2(F)CC2)C(C)(C)C)c(OCCc2ccc(CN3CCN(c4cc(-c5ccccc5O)nnc4N)CC3)cc2)c1
2. Cc1ncsc1-c1ccc(CNC(=O)[C@@H]2C[C@@H](O)CN2C(=O)[C@@H](NC(=O)C2(F)CC2)C(C)(C)C)c(OCCc2ccc(OCCN3CCN(c4cc(-c5ccccc5O)nnc4N)CC3)cc2)c1

[117, 26]
